TESTED_TARGET: Shp2 (Homo sapiens (Human))
PROTOCOL_NOTES: PTP activity assay (DiFMUP substrate) with GST-Shp2
Type: biochemical
STUDY_CONDITIONS: at 20 μM
OUTCOME_MEASURE: % PTP activity

>>> result("CC(C)NS(=O)(=O)c1ccc2c(c1)/C(=N/Nc1cccc(C(=O)NCc3ccco3)c1)C(=O)N2")
"48 ± 9% (2) at 20 μM"
>>> result("O=C1Nc2ccc(S(=O)(=O)O)cc2/C1=N/Nc1ccc(Cl)cc1Cl")
"81 ± 10% (3) at 20 μM"
>>> result("O=C1Nc2ccc(C(=O)O)cc2/C1=N/Nc1ccccc1Cl")
"45 ± 18% (2) At 20 μM"
>>> result("O=C(O)c1ccc(NC(=O)c2ccc3cc(C(=O)O)ccc3c2)cc1")
"69 ± 7.5% (3) at 20 uM"
>>> result("CCN(CC)C(=O)c1ccc2c(c1)/C(=N/Nc1cccc(C(=O)O)c1)C(=O)N2")
"57.16% (1) at 20 μM"
>>> result("O=C1Nc2ccc(C(=O)NCc3ccc(Cl)cc3)cc2/C1=N/Nc1cccc(C(=O)O)c1 [HL2-070-5]")
"62.32% (1) at 20 μM"
>>> result("COC(=O)c1ccccc1/C=C1\\C(=O)Nc2ccc(S(=O)(=O)NC(C)C)cc21")
"48 ± 9% (2) At 20 μM"
>>> result("O=C(O)c1ccc2[nH]cc(C(=O)c3ccccc3)c2c1")
"57 ± 9% (2) at 20 μM"

###

TESTED_TARGET: Shp2 (Homo sapiens (Human), UniProt Q06124)
Sequence (Q06124 205-593): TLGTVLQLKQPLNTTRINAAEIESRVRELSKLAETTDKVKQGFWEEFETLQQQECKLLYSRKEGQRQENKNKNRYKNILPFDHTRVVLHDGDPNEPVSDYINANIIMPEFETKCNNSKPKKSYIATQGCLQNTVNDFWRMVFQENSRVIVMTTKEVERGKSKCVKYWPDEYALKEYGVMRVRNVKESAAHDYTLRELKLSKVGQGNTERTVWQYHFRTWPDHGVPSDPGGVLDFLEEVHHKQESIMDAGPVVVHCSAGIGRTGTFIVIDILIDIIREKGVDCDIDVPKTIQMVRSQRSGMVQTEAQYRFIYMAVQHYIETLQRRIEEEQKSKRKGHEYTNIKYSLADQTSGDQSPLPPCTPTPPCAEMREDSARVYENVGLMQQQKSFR
PROTOCOL_NOTES: PTP activity assay (DiFMUP substrate) with GST-Shp2
Assay type: biochemical
STUDY_CONDITIONS: at 20 μM
OUTCOME_MEASURE: % PTP activity

>>> result("COC(=O)c1ccccc1N/C=C1\\C(=O)Nc2ccc(S(=O)(=O)NC(C)C)cc21")
"54.19% (1) At 20 μM"
>>> result("CC(C)NS(=O)(=O)c1ccc2c(c1)/C(=C/Nc1ccc(C(=O)O)cc1)C(=O)N2")
"56.77% (1) at 20 μM"
>>> result("CC(C)NS(=O)(=O)c1ccc2c(c1)/C(=N/Nc1cccc(C(=O)NCc3ccccc3)c1)C(=O)N2")
"47 ± 3% (2) at 20 μM"
>>> result("COCCNC(=O)c1cccc(N/N=C2\\C(=O)Nc3ccc(S(=O)(=O)NC(C)C)cc32)c1")
"44 + 7% (2) at 20 μM"
>>> result("CCOC(=O)c1ccc(N/C=C2\\C(=O)Nc3ccc(S(=O)(=O)NC(C)C)cc32)cc1")
"30 ± 2% (2) at 20 μM"
>>> result("CC(C)NS(=O)(=O)c1ccc2c(c1)/C(=N/Nc1cccc(C(=O)NCCN(C)C)c1)C(=O)N2")
"57 + 13% (2) at 20 μM"
>>> result("O=C1Nc2ccc(C(=O)NCc3ccc(Cl)cc3)cc2/C1=N/Nc1ccccc1C(=O)O")
"30 ± 4% (2) at 20 μM"
>>> result("O=C1Nc2ccc(C(=O)O)cc2/C1=N/Nc1ccccc1F")
"49 ± 4% (2) At 20 μM"
>>> result("O=C1Nc2ccc(S(=O)(=O)O)cc2/C1=N/Nc1ccccc1C(F)(F)F")
"63 ± 4% (3) at 20 μM"
>>> result("O=C1Nc2ccc(S(=O)(=O)NCc3ccc(Cl)cc3)cc2/C1=C/Nc1ccccc1[N+](=O)[O-]")
"66.20% (1) At 20 μM"
>>> result("CC(C)NS(=O)(=O)c1ccc2c(c1)/C(=C/Nc1cccc(C(=O)O)c1)C(=O)N2")
"82.31% (1) At 20 μM"
>>> result("O=C1Nc2ccc(S(=O)(=O)O)cc2/C1=N/Nc1c(F)c(F)c(F)c(F)c1F")
"58 ± 6% (3) at 20 μM"
>>> result("COCCNC(=O)c1ccccc1N/N=C1\\C(=O)Nc2ccc(S(=O)(=O)NC(C)C)cc21")
"51 ± 7% (2) At 20 μM"
>>> result("O=C1Nc2ccc(S(=O)(=O)O)cc2/C1=N/Nc1c(Cl)cccc1Cl")
"53 ± 0.1% (2) at 20 μM"
>>> result("O=C1Nc2ccc(C(=O)O)cc2/C1=N/Nc1ccccc1")
"43 ± 4% at 20 μM"
>>> result("CC(C)NS(=O)(=O)c1ccc2c(c1)/C(=N/Nc1ccccc1C(=O)O)C(=O)N2")
"0.8 ± 1% (3) at 20 μM"
>>> result("O=C1Nc2ccc(S(=O)(=O)O)cc2/C1=N/Nc1cc(Cl)ccc1Cl")
"73 ± 22% at 20 μM"
>>> result("NS(=O)(=O)c1ccc(NC(=O)c2ccc3cc(C(=O)O)ccc3c2)cc1")
"54 ± 6% (3) at 20 uM"
>>> result("O=C1Nc2ccc(C(=O)O)cc2/C1=N/Nc1ccccc1C(=O)O")
"46 ± 3% (2) at 20 μM"
